Below, each entry is listed with its recorded kon.
Biological target: T1, cynoSIRPα (XP_015313155), Extracellular Domain + His-Tag (cynomolgus monkey)
T1 construct: also called CySIRPα XP_015313155; not shown: His-Tag
T1 chain: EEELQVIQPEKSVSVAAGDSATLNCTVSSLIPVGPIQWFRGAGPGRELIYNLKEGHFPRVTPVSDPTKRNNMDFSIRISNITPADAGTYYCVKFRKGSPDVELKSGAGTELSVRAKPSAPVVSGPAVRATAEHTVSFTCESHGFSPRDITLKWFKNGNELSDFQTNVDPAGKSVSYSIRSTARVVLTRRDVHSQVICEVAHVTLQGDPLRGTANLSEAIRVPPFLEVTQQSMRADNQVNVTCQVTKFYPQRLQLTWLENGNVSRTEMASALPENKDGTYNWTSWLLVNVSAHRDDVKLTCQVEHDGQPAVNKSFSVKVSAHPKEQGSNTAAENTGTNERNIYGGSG
Assay: SPR, antibody captured on Protein A/G, ECD-His analyte, 1:1 fit

binder	kon, M⁻¹ s⁻¹
Antibody E10 (antibody, human IgG1, kappa, L234A L235A, V domains shown) VH: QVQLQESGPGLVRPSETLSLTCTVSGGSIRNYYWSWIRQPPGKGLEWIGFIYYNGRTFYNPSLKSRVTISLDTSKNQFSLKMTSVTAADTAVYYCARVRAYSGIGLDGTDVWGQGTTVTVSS VL: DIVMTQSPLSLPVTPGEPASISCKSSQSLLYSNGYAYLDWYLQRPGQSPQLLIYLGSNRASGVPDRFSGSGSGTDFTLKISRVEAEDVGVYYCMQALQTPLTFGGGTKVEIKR	222000
Antibody E5 (antibody, human IgG1, kappa, L234A L235A, V domains shown) VH: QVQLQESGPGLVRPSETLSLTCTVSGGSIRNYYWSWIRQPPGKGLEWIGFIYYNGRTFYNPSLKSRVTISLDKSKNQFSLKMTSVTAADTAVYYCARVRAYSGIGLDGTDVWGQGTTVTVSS VL: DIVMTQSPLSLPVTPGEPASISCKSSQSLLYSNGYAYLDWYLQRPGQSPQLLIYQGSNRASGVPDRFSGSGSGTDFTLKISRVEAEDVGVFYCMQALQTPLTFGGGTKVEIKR	121000
Antibody E11 (antibody, human IgG1, kappa, L234A L235A, V domains shown) VH: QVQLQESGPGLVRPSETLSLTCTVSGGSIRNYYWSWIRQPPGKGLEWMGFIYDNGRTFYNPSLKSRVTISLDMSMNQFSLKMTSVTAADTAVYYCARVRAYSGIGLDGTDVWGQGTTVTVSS VL: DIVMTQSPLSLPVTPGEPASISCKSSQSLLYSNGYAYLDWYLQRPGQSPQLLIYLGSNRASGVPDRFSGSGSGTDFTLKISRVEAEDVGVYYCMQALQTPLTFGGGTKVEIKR	275000
Antibody E3 (antibody, human IgG1, kappa, L234A L235A, V domains shown) VH: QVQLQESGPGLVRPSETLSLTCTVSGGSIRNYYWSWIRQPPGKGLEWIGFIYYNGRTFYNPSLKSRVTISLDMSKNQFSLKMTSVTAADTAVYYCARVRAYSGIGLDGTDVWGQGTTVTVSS VL: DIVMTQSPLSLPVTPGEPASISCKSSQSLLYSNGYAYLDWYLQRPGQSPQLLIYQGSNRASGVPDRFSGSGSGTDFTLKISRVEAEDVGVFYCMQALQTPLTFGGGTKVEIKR	170000
Antibody E9 (antibody, human IgG1, kappa, L234A L235A, V domains shown) VH: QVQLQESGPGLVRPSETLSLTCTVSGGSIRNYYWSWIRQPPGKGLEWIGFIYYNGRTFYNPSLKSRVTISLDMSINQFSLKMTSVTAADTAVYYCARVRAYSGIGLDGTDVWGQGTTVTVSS VL: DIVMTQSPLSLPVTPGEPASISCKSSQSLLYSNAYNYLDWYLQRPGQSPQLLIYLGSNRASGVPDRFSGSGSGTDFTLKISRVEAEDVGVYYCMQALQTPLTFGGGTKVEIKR	324000
Antibody E19 (antibody, human IgG1, kappa, L234A L235A, V domains shown) VH: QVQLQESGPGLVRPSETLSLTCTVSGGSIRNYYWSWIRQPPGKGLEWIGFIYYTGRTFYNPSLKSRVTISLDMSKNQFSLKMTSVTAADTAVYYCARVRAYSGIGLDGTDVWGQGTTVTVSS VL: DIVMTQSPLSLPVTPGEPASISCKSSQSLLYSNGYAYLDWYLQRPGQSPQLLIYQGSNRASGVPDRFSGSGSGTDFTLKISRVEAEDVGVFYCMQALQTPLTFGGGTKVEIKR	154000
Antibody E1 (antibody, human IgG1, kappa, L234A L235A, V domains shown) VH: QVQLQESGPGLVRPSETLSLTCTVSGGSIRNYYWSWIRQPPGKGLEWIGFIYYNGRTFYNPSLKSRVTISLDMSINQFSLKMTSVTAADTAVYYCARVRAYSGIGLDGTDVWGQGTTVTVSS VL: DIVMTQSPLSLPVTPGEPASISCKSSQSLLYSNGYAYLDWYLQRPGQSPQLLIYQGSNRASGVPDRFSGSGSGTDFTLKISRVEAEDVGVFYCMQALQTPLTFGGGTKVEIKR	190000
Antibody E16 (antibody, human IgG1, kappa, L234A L235A, V domains shown) VH: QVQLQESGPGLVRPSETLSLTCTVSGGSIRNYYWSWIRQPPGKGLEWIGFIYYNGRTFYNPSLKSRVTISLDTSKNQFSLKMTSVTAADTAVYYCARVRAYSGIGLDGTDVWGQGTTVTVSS VL: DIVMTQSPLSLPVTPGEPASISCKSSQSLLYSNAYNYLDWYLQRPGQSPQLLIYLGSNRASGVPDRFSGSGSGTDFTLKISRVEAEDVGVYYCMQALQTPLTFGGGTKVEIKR	300000
